Provide the recorded pIC50 for the entries that follow.
- System: A549
- Run Description: Cytotoxicity against human A549 cells after 48 hrs by MTT assay
- Condition Parameters: A549, 48 h
In simple prose, pIC50 is minus the logarithm base ten of a concentration in moles per litre.

## Task What measured pIC50 goes with C=C(C)[C@@H]1CC[C@]2(C(=O)O)CC[C@]3(C)[C@H](CC[C@@H]4[C@@]5(C)CC[C@H](O)C(C)(C)[C@@H]5CC[C@]43C)[C@@H]12 ?
## Result 5.18

## Task What measured pIC50 goes with CC[C@H](/C=C/[C@@H](C)[C@H]1CC[C@H]2[C@@H]3CC=C4C[C@@H](O)CC[C@]4(C)[C@H]3CC[C@]12C)C(C)C ?
## Result 4.01

## Task What measured pIC50 goes with O=c1ccc2ccc(Oc3cc4ccc(O)cc4oc3=O)cc2o1 ?
## Result 4.10
